Every entry's value here was drawn from patent US20250353873A1.

tested on: human APOE RNA; assay: Activity in APOE C57BL/6NTac-Apoeem7250 knock-in mice, single ICV bolus, 8 weeks (Example 11); type: in vivo; conditions: spinal cord; single ICV bolus 300 μg; 8 weeks post treatment; normalized to mouse Ppia
Strand notation (5' to 3'): a small letter for the sugar, then the base; units joined by * are phosphorothioate-linked, units joined directly phosphodiester-linked; [ ] holds rarer units or linkages, { } end groups; capitals alone tell only the bases. [ms] = mesyl phosphoramidate linkage; e = 2'-O-(2-methoxyethyl) (MOE); k = constrained ethyl (cEt); [5mC] = 5-methylcytosine; d = 2'-deoxy (DNA)
Hi there, I'd appreciate the recorded APOE RNA (% control) Spinal Cord for every entry that follows.
Numbers only, in % control.

Use these answered entries as a reference point.
| substance | tested on | APOE RNA (% control) Spinal Cord |
| --- | --- | --- |
| Compound No. 1517891: comparator of WO 2022/066956; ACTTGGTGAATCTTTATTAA, sugar eeeeeddddddddddeeeee, linkages sooosssssssssssooss (MOE gapmer, mixed PS/PO linkages, chemistry not fully specified) [reference compound] | human APOE RNA | 29 |
| 1681007: 5-10-5 MOE gapmer GGTGAATCTTTATTAAACTA, linkages zsssszsssszzszssszz (antisense eG[ms]eG*eT*eG*eA*dA[ms]dT*d[5mC]*dT*dT*dT[ms]dA[ms]dT*dT[ms]dA*eA*eA*e[5mC][ms]eT[ms]eA) [compound 1681007] | human APOE RNA | 47 |
| 1778126 (eA*e[5mC]eTeTkG*kG*dT*dG[ms]dA[ms]dA*dT*d[5mC]*dT*dT*dT*dA[ms]kT*eT*eA*eA; antisense) [Compound 1778126] | human APOE RNA | 20 |
| 1747050 (k[5mC]*kT*kT*dG[ms]dG[ms]kT*dG[ms]dA[ms]dA[ms]dT*d[5mC]*dT*dT*dT*dA[ms]dT*kT*dA[ms]dA[ms]kA; antisense) [Compound 1747050] | human APOE RNA | 23 |
| 1652903: 6-10-4 MOE gapmer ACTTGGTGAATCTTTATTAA, linkages sooooossssssssssoss (antisense eA*e[5mC]eTeTeGeGdT*dG*dA*dA*dT*d[5mC]*dT*dT*dT*dA*eTeT*eA*eA) [compound 1652903] | human APOE RNA | 19 |

Your task in this section: give APOE RNA (% control) Spinal Cord for each listed record.
1. ^mCksTksTksGdzGdzTdzGdzAdzAdzTds^mCdsTdsTdsTdsAdsTdsTksAksAdzAk (antisense k[5mC]*kT*kT*dG[ms]dG[ms]dT[ms]dG[ms]dA[ms]dA[ms]dT*d[5mC]*dT*dT*dT*dA*dT*kT*kA*dA[ms]kA) [Compound No. 1785602]
2. 1746804 (k[5mC]*kT*kT*dG[ms]dG[ms]dT[ms]dG[ms]dA[ms]dA[ms]dT*d[5mC]*dT*dT*dT*dA[ms]dT*dT[ms]kA*kA*kA; antisense) [Compound 1746804]
3. 1810064: mixed MOE/cEt gapmer CTTGGTGAATCTTTATTAAAC, sugar eeeeekddddddddddeeeee, linkages ssoooszzzssssszsooss (e[5mC]*eT*eTeGeGkT*dG[ms]dA[ms]dA[ms]dT*d[5mC]*dT*dT*dT*dA[ms]dT*eTeAeA*eA*e[5mC]) [compound 1810064]

1: 26; 2: 25; 3: 15

* * *

Consider the following substances; for each one, report its pIC50.
tested on: human APOE RNA; assay: Dose-dependent inhibition of human APOE RNA in HepG2 cells, electroporation, 50,000 cells per well, RT-PCR normalized to GAPDH (Example 4, Tables 8-10); assay type: cell-based; conditions: reduction of human APOE RNA, HepG2 cells, electroporation, 24-hour treatment, Table 8
Strand notation (5' to 3'): a small letter for the sugar, then the base; units joined by * are phosphorothioate-linked, units joined directly phosphodiester-linked; [ ] holds rarer units or linkages, { } end groups; capitals alone tell only the bases. [ms] = mesyl phosphoramidate linkage; e = 2'-O-(2-methoxyethyl) (MOE); k = constrained ethyl (cEt); [5mC] = 5-methylcytosine; d = 2'-deoxy (DNA)
Give bare numbers, as −log10 of the molar value.

State the recorded pIC50 for every item in the following list.
1. 1778154: modified oligonucleotide complementary to human APOE RNA (e[5mC]*eT*eTeGeGeT*dG[ms]dA[ms]dA*dT*d[5mC]*dT*dT*dT*dA*dT*kTkAeA*eA; antisense) [compound 1778154]
2. 1785617: modified oligonucleotide complementary to human APOE RNA (k[5mC]*dT[ms]dT[ms]kG*dG[ms]kT*dG[ms]dA[ms]dA[ms]dT[ms]d[5mC]*dT*dT*dT*dA*dT*kT*kA*dA[ms]kA; antisense) [compound 1785617]

5.97
6.02

Below is a list of substances. For each, state its recorded pIC50.
1. 1785599: modified oligonucleotide complementary to human APOE RNA (k[5mC]*kT*kT*dG[ms]dG[ms]dT[ms]dG[ms]dA[ms]dA[ms]dT[ms]d[5mC]*dT*dT*dT*dA*dT*kT*kA*dA[ms]kA; antisense) [compound 1785599]
2. 1785601: modified oligonucleotide complementary to human APOE RNA (k[5mC]*kT*kT*dG[ms]dG[ms]dT[ms]dG*dA[ms]dA[ms]dT*d[5mC]*dT*dT*dT*dA[ms]dT*kT*kA*dA[ms]kA; antisense) [compound 1785601]

1. 6.19
2. 6.42

* * *

tested on: human APOE RNA; assay: Dose-dependent inhibition of human APOE RNA in differentiated SH-SY5Y cells, free uptake, 5 days (Example 5); format: cell-based; settings: 13 nM, 5 days (Table 14)
Strand notation (5' to 3'): a small letter for the sugar, then the base; units joined by * are phosphorothioate-linked, units joined directly phosphodiester-linked; [ ] holds rarer units or linkages, { } end groups; capitals alone tell only the bases. [ms] = mesyl phosphoramidate linkage; e = 2'-O-(2-methoxyethyl) (MOE); k = constrained ethyl (cEt); [5mC] = 5-methylcytosine; d = 2'-deoxy (DNA)
Give measured APOE RNA (% UTC) for each item. Keep answers brief.
One number for each entry, in % UTC.

| substance | tested on | APOE RNA (% UTC) |
| --- | --- | --- |
| 1778111: modified oligonucleotide complementary to human APOE RNA (eA*e[5mC]eTeTeG*kG*dT*dG[ms]dA[ms]dA*dT*d[5mC]*dT*dT*dT*dA[ms]eTeT*eA*eA; antisense) [compound 1778111] | human APOE RNA | 68 |
| 1757575 (eA*e[5mC]eTeT*kG*kG*dT*dG[ms]dA[ms]dA[ms]dT*d[5mC]*dT*dT*dT*dA[ms]kT*eT*eA*eA; antisense) [Compound 1757575] | human APOE RNA | 56 |
| 1746809 (k[5mC]*dT[ms]kT*dG[ms]kG*dT[ms]dG[ms]dA[ms]dA[ms]dT*d[5mC]*dT*dT*dT*dA[ms]dT*dT[ms]kA*kA*kA; antisense) [Compound 1746809] | human APOE RNA | 118 |
| 1746784 (k[5mC]*kT*kT*dG[ms]dG[ms]dT[ms]dG[ms]dA[ms]dA[ms]dT*d[5mC]*dT*dT*dT*dA[ms]dT*kT*kA*dA[ms]kA; antisense) [Compound 1746784] | human APOE RNA | 118 |

We next turn to a different substance, shown below.
Lab entry: human APOE RNA assay, substance 1746804 (k[5mC]*kT*kT*dG[ms]dG[ms]dT[ms]dG[ms]dA[ms]dA[ms]dT*d[5mC]*dT*dT*dT*dA[ms]dT*dT[ms]kA*kA*kA; antisense) [Compound 1746804] , APOE RNA (% UTC) = 117

* * *

tested on: human APOE RNA; assay: Potency (dose response, ED50) in APOE C57BL/6NTac-Apoeem7250 knock-in mice, 4 weeks (Example 14); assay type: in vivo; details: spinal cord, ICV dose 10 μg
Strand notation (5' to 3'): a small letter for the sugar, then the base; units joined by * are phosphorothioate-linked, units joined directly phosphodiester-linked; [ ] holds rarer units or linkages, { } end groups; capitals alone tell only the bases. [ms] = mesyl phosphoramidate linkage; e = 2'-O-(2-methoxyethyl) (MOE); k = constrained ethyl (cEt); [5mC] = 5-methylcytosine; d = 2'-deoxy (DNA)
For each of the substances below, state its APOE RNA (% control) Spinal Cord.
Numbers only, in % control.

Required: APOE RNA (% control) Spinal Cord, one value per substance below.
1. 1778154: modified oligonucleotide complementary to human APOE RNA (e[5mC]*eT*eTeGeGeT*dG[ms]dA[ms]dA*dT*d[5mC]*dT*dT*dT*dA*dT*kTkAeA*eA; antisense) [compound 1778154]
2. 1693105: 6-10-4 MOE gapmer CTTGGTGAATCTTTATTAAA, linkages sosssszzzssssszssss (e[5mC]*eTeT*eG*eG*eT*dG[ms]dA[ms]dA[ms]dT*d[5mC]*dT*dT*dT*dA[ms]dT*eT*eA*eA*eA) [compound 1693105]

[105, 71]

Working through the 2 substances below one at a time, give APOE RNA (% control) Spinal Cord for each.
1. Aes^mCeoTeoTesGesGksTdsGdzAdzAdzTds^mCdsTdsTdsTdsAdzTksTksAesAe (eA*e[5mC]eTeT*eG*kG*dT*dG[ms]dA[ms]dA[ms]dT*d[5mC]*dT*dT*dT*dA[ms]kT*kT*eA*eA) [Compound No. 1757576]
2. 1778130: modified oligonucleotide complementary to human APOE RNA (eA*e[5mC]eTeTeG*kG*dT*dG[ms]dA[ms]dA*dT*d[5mC]*dT*dT*dT*dA[ms]kTkT*eA*eA; antisense) [compound 1778130]

1: 58; 2: 88
